Values from ChEMBL document CHEMBL1201862

Test system: OVCAR-8
protocol.text: NCI tumour cell line growth inhibition, 48 h
The source made the active and inactive calls. No stated cut-off is given here; in the data, active = GI50 up to about 1.1 µM and inactive = higher.
Readings of GI50 for the listed compounds
parameter: GI50

- CCC1OC(=O)C(C)C(OC2CC(C)(O)C(O)C(C)O2)C(C)C(O)C(C)(O)CC(C)C(=O)C(C)C(O)C1C (stereo not drawn): > 300 µM (inactive)
- COc1cc([C@H]2c3cc4c(cc3[C@H](NCc3ccc(F)cc3)C3COC(=O)[C@H]32)OCO4)cc(OC)c1O (stereo partly drawn): 4.3 µM (inactive)
- C[Si](C)(C)CCOCN(C(=O)C1=CCC2(CC1)OCCO2)c1ccccc1I: 32.5 µM (inactive)

====

Tested on: KM-20L2
protocol.text: NCI tumour cell line growth inhibition, 48 h
Activity calls are given as the source filed them. No stated cut-off is given here; in the data, active = GI50 up to about 1.1 µM and inactive = higher.
parameter: GI50

- COC(=O)C(=O)C(C(=O)C=C(C)C)C(=O)C(=O)Nc1cc(C(F)(F)F)ccc1Cl (centres undefined): > 100 µM (inactive)
- CC(=O)O[C@]12CCCC1C1(O)C(O)CCCC12 (some centres undefined): > 100 µM (inactive)
- CC1=CCC(O)C=CC(C)C(O)C(C)C=C(C)C(=O)c2c(O)c(C)cc3c2C(=O)C(N)=C(NC(=O)/C=C\C=C/C=CC(C)C(O)CC1=O)C3=O (centres undefined): > 100 µM (inactive)
- CCOc1ccc(/N=C\c2ccc3cc(C)ccc3n2)cc1: 34.7 µM (inactive)
- O=c1c2ccccc2c(=O)c2c1cc(Cl)c1[nH]c3c([nH]c12)c(Cl)cc1c(=O)c2ccccc2c(=O)c13: > 100 µM (inactive)
- CC1c2[nH]c3ccccc3c2CCN1O (centres undefined): > 100 µM (inactive)
- CC(C)OP(=O)(OC(C)C)/C(=N/Nc1ccccc1[N+](=O)[O-])NCCN/C(=N\Nc1ccccc1[N+](=O)[O-])P(=O)(OC(C)C)OC(C)C: 24.9 µM (inactive)
- CCN(CC)[C@@H]1c2cc3c(cc2C(c2cc(OC)c(O)c(OC)c2)C2C(=O)CO[C@@H]21)OCO3 (some centres undefined): > 100 µM (inactive)
- COc1ccc(-c2cnoc2-c2ccc(OC)c(OC)c2)cc1OC: 4.66 µM (inactive)
- Cc1cnc2c(C)ccc([N+](=O)[O-])c2c1NCCCN(C)C: > 100 µM (inactive)
- Clc1cc(Cl)c2n[se]nc2c1: > 100 µM (inactive)
- CC1(C)CC2(S(=O)(=O)c3ccccc3)ON1CC2S(=O)(=O)c1ccccc1 (centres undefined): > 100 µM (inactive)
- COc1cc(OC)c(SSCCCCS(=O)O)c(OC)c1: 18.7 µM (inactive)
- Cc1cn2c(=O)c3ncn(C4OC(CO)C(O)C4O)c3n(C)c2n1 (centres undefined): > 100 µM (inactive)

====

Tested on: RXF 393
protocol.text: NCI tumour cell line growth inhibition, 48 h
Calls of active or inactive are those of the source. Cut-off read from the data, not from the text of the source: active = GI50 up to about 1.1 µM and inactive = higher.
Known GI50 of a selection of compounds
parameter: GI50

- CC1(C)S[C@H](CN)N[C@H]1C(=O)OC(c1ccccc1)c1ccccc1: 63.5 µM (inactive)
- COC(=O)C(=O)C(C(=O)C=C(C)C)C(=O)C(=O)Nc1cc(C(F)(F)F)ccc1Cl (configuration not stated): > 100 µM (inactive)
- CCOC(=O)/C=C/[C@H](O[Si](CC)(CC)CC)C(C)(C)C: 47.1 µM (inactive)
- CCCCCCCCCCCCCCC(C)CCC(=O)O (configuration not stated): > 100 µM (inactive)
- CC1OC(OC2C(O)COC(OC3C(C)OC(OC4C(OC(=O)[C@]56CCC(C)(C)C[C@@H]5C5=CCC7[C@@]8(C)C[C@H](O)[C@H](OC9OC(CO)C(O)C(O)C9O)[C@@](C)(CO)[C@@H]8CC[C@@]7(C)[C@]5(C)CC6)OCC(O)C4O)C(O)C3O)C2O)C(O)C(O)C1O (some centres not stated): 15.6 µM (inactive)
- CCOC(=O)Cn1nc2ccc(Nc3c(C)[n+]([O-])c4cc(F)c(OCC)cc4[n+]3[O-])cc2n1: 20.7 µM (inactive)
- N#CCCC(CC#N)N1CCN(C(CC#N)CCC#N)CC1 (configuration not stated): > 100 µM (inactive)
- CC(C)Cc1ccc(C(C)CC2=CCC(CN(C)C)C2=O)cc1 (configuration not stated): 5.78 µM (inactive)
- N=C(N)NS(=O)(=O)c1ccc(NC(=O)c2ccc(Cl)c3c(Nc4ccc(S(=O)(=O)N=C(N)N)cc4)c4ccccc4nc23)cc1: > 100 µM (inactive)
- O=S(=O)(O)c1ccc(/N=N/c2ccc(/N=N/c3c(O)ccc4ccccc34)c(S(=O)(=O)O)c2)cc1: > 100 µM (inactive)
- O=C(O)c1cccc2cccc(-c3c4ccc(=O)cc-4oc4cc(O)ccc34)c12: > 100 µM (inactive)
- CCOC(=O)C1C(C(C)C)C2(C#N)C(=N)OC1(C)C2(C#N)C#N (configuration not stated): 36.3 µM (inactive)
- O=C(NCCCNC(=O)c1ccc2c(O)c(O)ccc2c1)c1ccc2c(O)c(O)ccc2c1: 27.3 µM (inactive)
- O=c1oc2ccccc2cc1P(=O)(O)O: > 100 µM (inactive)
- CCN(CC)C(=O)CNC(=O)OC(C)(C)C: > 100 µM (inactive)
- c1ccc2c(c1)CCN2CCc1c[nH]c2ccccc12: > 10 µM (inactive)
- Clc1nc(Cl)c(Cl)c(Cl)n1: 18.3 µM (inactive)
- CC1c2[nH]c3ccccc3c2CCN1O (configuration not stated): > 100 µM (inactive)
- CCOC(=O)c1c(N2CCOCC2)[nH]c(=O)c(C(c2ccc(OC)cc2)c2c(O)c(C(=O)OCC)c(N3CCOCC3)[nH]c2=O)c1O: > 100 µM (inactive)
- O=C1CSC(c2ccc([N+](=O)[O-])cc2)N1c1nc(-c2ccc3c(c2)CCCC3)cs1 (configuration not stated): > 100 µM (inactive)
- CCSc1nc(N2CCOCC2)c2cn[nH]c2n1: > 100 µM (inactive)
- CC(=O)N/C(=C\c1ccc(/C=C(\NC(C)=O)C2=NC3C(=O)c4ccccc4C(=O)C3N2)cc1)C1=NC2C(=O)c3ccccc3C(=O)C2N1 (configuration not stated): 13.2 µM (inactive)

====

Test system: NCI-H460
protocol.text: NCI tumour cell line growth inhibition, 48 h
Calls of active or inactive are those of the source. No stated cut-off is given here; in the data, active = GI50 up to about 1.1 µM and inactive = higher.
Outcomes: true = active, false = inactive

• CCN(CC)C(=O)CNC(=O)OC(C)(C)C = false
• S=C(S)NCCCn1ccnc1 = false
• CN(C)CCCNc1ccc2ncn3c4ccccc4c(=O)c1c23 = false
• O=C1c2ccccc2-n2c1nc1ccc(Cl)cc1c2=O = false
• N#Cc1c(-c2ccc(Cl)cc2)c2c([nH]c1=O)-c1cc([N+](=O)[O-])ccc1CCC2 = false
• COc1ccc(CC(N)c2ccc(OC)cc2)cc1 (stereo not given) = false
• COC(=O)C1(Cc2ccc3c(c2)CCC3)Cc2ccccc2C1 = false
• O=C(c1ccccc1)N1CCN2CCN=C(c3ccccc3)C21c1ccccc1 (stereo not given) = false
• COC(=O)c1c2c(cc3c1CC1(Cc4cc5c(cc4C1=O)CCC5)C3)CCC2 (stereo not given) = false
• O=C1C2c3[nH]c4ccccc4c3C3CCCCC3C2C(=O)N1c1ccccc1 (stereo not given) = false
• CCN(CC)CCNc1ccc2ncn3c4ccc(O)cc4c(=O)c1c23 = true
• ON=C(CC(O)(C(F)(F)Cl)C(F)(F)Cl)CC(O)(C(F)(F)Cl)C(F)(F)Cl = false
• O=C1c2cccc3cc4ccccc4c(c23)C(=O)N1CCNCCN1C(=O)c2cccc3cc4ccccc4c(c23)C1=O = true
• O=c1c2ccccc2c(=O)c2c1cc(Cl)c1[nH]c3c([nH]c12)c(Cl)cc1c(=O)c2ccccc2c(=O)c13 = false
• CCOP(=O)(OCC)C(C)(CC)NC1=NC(C(F)(F)F)(C(F)(F)F)NC(=O)N1 (stereo not given) = false

====

Tested on: IGROV-1
protocol.text: NCI tumour cell line growth inhibition, 48 h
Active and inactive are the calls of the source. No stated cut-off is given here; in the data, active = GI50 up to about 1.1 µM and inactive = higher.
parameter: GI50

- COC(=O)C1Cc2c(n(C)c3ccccc23)C(c2ccccc2)N1 (stereo not drawn): 45.8 µM (inactive)
- CCN(CC)C(=O)CNC(=O)OC(C)(C)C: > 100 µM (inactive)
- COc1ccc(CC(N)c2ccc(OC)cc2)cc1 (stereo not drawn): 66.7 µM (inactive)
- Cc1nc(-c2cccnc2)sc1C(=O)/C=C/c1ccc(Cl)cc1Cl: > 100 µM (inactive)
- C/C(=N\N=C(\N)SB(F)F)c1ccc2ccccc2c1: > 100 µM (inactive)
- N=C(N)NS(=O)(=O)c1ccc(NC(=O)c2ccc(Cl)c3c(Nc4ccc(S(=O)(=O)N=C(N)N)cc4)c4ccccc4nc23)cc1: 76.4 µM (inactive)
- CC(C)Cc1ccc(C(C)CC2=CCC(CN(C)C)C2=O)cc1 (stereo not drawn): 9.51 µM (inactive)
- NC(=O)C12CCC1C1CCCCC12N1CCOCC1 (stereo not drawn): > 100 µM (inactive)
